B1: TPR t1 (parent)
chain: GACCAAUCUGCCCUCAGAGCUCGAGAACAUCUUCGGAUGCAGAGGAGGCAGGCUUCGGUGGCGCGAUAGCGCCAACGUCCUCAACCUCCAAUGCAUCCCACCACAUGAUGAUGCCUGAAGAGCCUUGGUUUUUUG

- Variants of: B1
- assay_remarks: polymerase ribozyme fitness, log enrichment relative to wild type (log ratio); higher = more active; in vitro selection for triplet polymerase activity
Parameter threshold = -3. Response is 1 when polymerase ribozyme fitness (log ratio) meets or exceeds it, else -1.

Hello, I need to know if A50U C62U A91C has measured polymerase ribozyme fitness (log ratio) not below -3. Thanks! -1

Form field: polymerase ribozyme fitness (log ratio) at least -3? Entry: G52U A83C C101G C115U -1

Is it the case that U7C C40A C56G has polymerase ribozyme fitness (log ratio) reaching or exceeding -3? 1

Given G19C C70U U112A G120A U130C , state whether its polymerase ribozyme fitness (log ratio) is at least -3. 1

Kindly determine if polymerase ribozyme fitness (log ratio) recorded for C89A A91U is above or exactly -3. 1

Hello, I need to know if U7A C13U A27G G36U A50C has measured polymerase ribozyme fitness (log ratio) not below -3. Thanks! 1

hey, is polymerase ribozyme fitness (log ratio) for this one >= -3? G42A G61C U133A -1

Threshold query (polymerase ribozyme fitness (log ratio) >= -3) on A5U G52U U112G 1

Could you tell me if the measured polymerase ribozyme fitness (log ratio) of U55A C101G reaches -3 or more? 1

Check if polymerase ribozyme fitness (log ratio) >= -3 (inclusive). Item: C70A G120A 1

Decide: polymerase ribozyme fitness (log ratio) of G93A G122A U125G >= -3? -1

Identify whether the reported polymerase ribozyme fitness (log ratio) of the following variant is -3 or greater: C8A C70G 1

Confirm if polymerase ribozyme fitness (log ratio) reported for the variant G39U A68G C70U A121U is -3 or above. 1

Reported polymerase ribozyme fitness (log ratio) reaches at least -3 for C12G G61A C62G U87A G113U U125G ? -1

Is it the case that A29U A43G U54C G63A G117C has polymerase ribozyme fitness (log ratio) reaching or exceeding -3? -1

State whether the measured polymerase ribozyme fitness (log ratio) reaches -3, counting equality as reaching it, for C11A C85U G120U 1

Reported polymerase ribozyme fitness (log ratio) at or above -3? A90C C94U 1

Is polymerase ribozyme fitness (log ratio) at least -3? Consider G58A G71U C79A 1

Answer whether polymerase ribozyme fitness (log ratio) of C4A C13A A27C C123G is greater than or equal to -3. -1

Does polymerase ribozyme fitness (log ratio) meet or surpass -3 for C11G C64U C114G C115A C123G C124A ? -1

Given U92G C101A , state whether its polymerase ribozyme fitness (log ratio) is at least -3. -1

Does polymerase ribozyme fitness (log ratio) meet or surpass -3 for G45A G71U C115G ? 1

Please indicate if the recorded polymerase ribozyme fitness (log ratio) for G44A A46U G47C A74G meets or exceeds -3. 1

State whether the measured polymerase ribozyme fitness (log ratio) reaches -3, counting equality as reaching it, for U9A G52A C104U G110C -1

Item G17C C56U with polymerase ribozyme fitness (log ratio) of -3 or above? -1

Has C53U C64G C73U A90C U112G a recorded polymerase ribozyme fitness (log ratio) greater than or equal to -3? -1

Is polymerase ribozyme fitness (log ratio) at least -3? Consider A27C C104U -1

Entry C12A U32G C53A C89U C114A : is its polymerase ribozyme fitness (log ratio) no less than -3? -1

Could you tell me if the measured polymerase ribozyme fitness (log ratio) of G71U A91G A121U reaches -3 or more? 1

Is it the case that G39C G48A C49U C89A has polymerase ribozyme fitness (log ratio) reaching or exceeding -3? -1

State whether the measured polymerase ribozyme fitness (log ratio) reaches -3, counting equality as reaching it, for C28U C124A U125A 1

API: above_or_equal(metric=polymerase ribozyme fitness (log ratio), cutoff=-3) for item C62U G117A 1

Hi, just wondering whether A41C G48A G51U C80A C99G C115A U116G shows polymerase ribozyme fitness (log ratio) of -3 or higher. -1

polymerase ribozyme fitness (log ratio) >= -3 for G48A C53U G63U G110A ? -1

Is reported polymerase ribozyme fitness (log ratio) greater than or equal to -3 here: G120A G135C 1

Does C40U A100G have a reported polymerase ribozyme fitness (log ratio) of at least -3? -1

Could you tell me if the measured polymerase ribozyme fitness (log ratio) of A27G A37G G57C U96G C115A reaches -3 or more? -1

Check the entry U54C G69U G127C : does polymerase ribozyme fitness (log ratio) equal or exceed -3? 1
